system: Toxoplasma gondii RH 2F1 tachyzoites (intracellular in HFF); experiment: parasite survival relative to DMSO control; higher = less antiparasitic activity, active = 20 or less; settings: 1 µM; 72 h
Hello, when you answer, please use one of the following outcomes: 1 (yes) for active, 0 (no) for inactive

Check out these entries, answers already filled in.
# compound, category
rows = [
    ("Nc1nc2c(ncn2COC(CO)CO)c(=O)[nH]1", "0 (no)"),
    ("OC1O[C@H](CSc2ccc(F)cc2)[C@@H](O)[C@H]1O (stereo partly drawn)", "0 (no)"),
]

Then this compound:
INPUT: // return assay outcome for "Oc1cc(-c2cccc3ccccc23)[nH]n1"
OUTPUT: 0 (no)
